Values compiled from the supplement of paper PMC8967900.

system: SUP-B15; test: selective drug sensitivity score (sDSS, relative to normal bone marrow) (sDSS (score)); higher = more potent and effective on the cell line relative to normal bone marrow cells; conditions: 72 h;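 further: ALL cell lines in 384-well plates, five doses spanning 10,000-fold, each plate scaled between vehicle and 100 µmol/L benzalkonium chloride controls, sDSS an adapted area-under-curve metric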
Test Readout: selective drug sensitivity score
Response field accepts a number only; no unit should be typed.

INPUT: I would be grateful if you could share the reported selective drug sensitivity score for COc1cc(N2CCN(C)CC2)ccc1Nc1nccc(-c2cn(C)c3cnccc23)n1 [AZ191] (top concentration 10000 nM) .
OUTPUT: -2.72

----------
tested on: MOLT-14; test: selective drug sensitivity score (sDSS, relative to normal bone marrow) (sDSS (score)); higher = more potent and effective on the cell line relative to normal bone marrow cells; details: 72 h
Test Readout: selective drug sensitivity score
Response field accepts a number only; no unit should be typed.

Consider the worked cases shown below.
| Molecule | Assayed System | Test Readout | Observed Value |
| --- | --- | --- | --- |
| CC[C@H](CO)Nc1nc(NCc2ccccc2)c2ncn(C(C)C)c2n1 [Seliciclib] (top concentration 10000 nM) | MOLT-14 | selective drug sensitivity score | -1.04 |
| C[C@@H]1CCN(C(=O)CC#N)C[C@@H]1N(C)c1ncnc2[nH]ccc12 [Tofacitinib] (top concentration 5000 nM) | MOLT-14 | selective drug sensitivity score | -7.66 |
| CONC(=O)c1ccccc1Nc1cc(Nc2cc(C)nn2C(C)C)ncc1Cl (top concentration 1000 nM) | MOLT-14 | selective drug sensitivity score | -0.94 |
| CN(C)C1CCN(C(=O)c2ccc(NC(=O)Nc3ccc(-c4nc(N5CCOCC5)nc(N5CCOCC5)n4)cc3)cc2)CC1 [Gedatolisib] (top concentration 1000 nM) | MOLT-14 | selective drug sensitivity score | -3.24 |
| NC(=O)N1CCC(CC(=O)N2CCC([C@H]3c4ncc(Br)cc4CCc4cc(Cl)cc(Br)c43)CC2)CC1 [Lonafarnib] (top concentration 100000 nM) | MOLT-14 | selective drug sensitivity score | 14.1 |
| O=C(/C=C/c1cccc(S(=O)(=O)Nc2ccccc2)c1)NO [Belinostat] (top concentration 10000 nM) | MOLT-14 | selective drug sensitivity score | 12.2 |

// moving on: another record for selective drug sensitivity score
INPUT: I would be grateful if you could share the reported selective drug sensitivity score for CC(=O)O[C@@]12CO[C@@H]1C[C@H](O)[C@@]1(C)C(=O)[C@H](O)C3=C(C)[C@@H](OC(=O)[C@H](O)[C@@H](NC(=O)OC(C)(C)C)c4ccccc4)C[C@@](O)([C@@H](OC(=O)c4ccccc4)[C@H]21)C3(C)C [Docetaxel] (top concentration 1000 nM) .
OUTPUT: 19.5
